assay: Quantitative High-Throughput drug screen in 47 multiple myeloma cell lines against the NCATS MIPE library collection: OPM2_DSMZ cell viability assay (AID 1919872); details: OPM2 myeloma viability, CellTiter-Glo ATP luminescence, 48 h; series mostly up to 45.8 µM; note: nearly all actives have a fitted effect of over 30% in size
Inconclusive results are not listed. Calls of active or inactive are those of the source. Calls come from the whole dose curve; as a rule, active = well fitted cell-killing curve with a large enough effect; inconclusive = small, poorly fitted or top-dose-only effect, or effect the other way; inactive = no such curve, though single readings can be large or run the other way.
Outcome codes: active, inactive

Compound	Group
CC(=O)O[C@@]12CO[C@H]1C[C@H](O)[C@@]1(C)C(=O)[C@H](O)C3=C(C)[C@@H](OC(=O)C(O)[C@@H](NC(=O)OC(C)(C)C)c4ccccc4)C[C@@](O)([C@@H](OC(=O)c4ccccc4)[C@@H]21)C3(C)C (stereo partly drawn)	inactive
C=CCNC1=C2C[C@@H](C)C[C@H](OC)[C@@H](O)[C@@H](C)C=C(C)[C@H](OC(N)=O)[C@@H](OC)C=CC=C(C)C(=O)NC(=CC1=O)C2=O	active
Nc1nc(=O)n([C@H]2C[C@H](O)[C@@H](CO)O2)cc1F	inactive
CCCCCCCCCCCCCCCC(=O)OC[C@@H](NC(=O)C(Cl)Cl)[C@H](O)c1ccc([N+](=O)[O-])cc1	inactive
CC(C(C)N1CC(=O)NC(=O)C1)N1CC(=O)NC(=O)C1 (stereo not drawn)	inactive
CCCCOc1ccc(C(=O)Nc2ccc(F)cc2F)cc1	inactive
CCCNS(=O)(=O)Nc1ncnc(OCCOc2ncc(Br)cn2)c1-c1ccc(Br)cc1	inactive
NC1=N[C@H]2[C@H](CS[C@H]2CCCCC(=O)O)N1	inactive

* * *

system: MKL-2; assay: qHTS assay to identify novel small-molecules to repurpose for Merkel cell carcinoma treatment (AID 1296009); conditions: MCC and control cell lines, CellTiter-Glo viability, 72 h; series mostly up to 46 µM; note: nearly all actives have a fitted effect of over 60% in size
Inconclusive results are not listed. Activity calls are given as the source filed them. Calls follow the shape of the dose curve; as a rule, active = well fitted inhibition curve with a large enough effect; inconclusive = small, poorly fitted or top-dose-only effect; inactive = flat fitted curve, though single readings scatter.
Labels: True = active, False = inactive

> print(dat)
                                 cpd.smiles  system.name  group
1  CC(C)OC(=O)[C@H](C)N[P@](=O)(OC[C@H]1O[C@@H](n2ccc(=O)[nH]c2=O)[C@](C)(F)[C@H]1O)Oc1ccccc1        MKL-2  False
2  NC(=O)c1cccc(-c2cccc(OC(=O)NC3CCCCC3)c2)c1        MKL-2  False
3  CC(C)c1cc(C(C)C)c(CC(=O)NS(=O)(=O)Oc2c(C(C)C)cccc2C(C)C)c(C(C)C)c1        MKL-2  False
4  CN1CCCN(C(=O)c2cccc(-c3ccc(C=C4C(=O)Nc5ccc(Cl)cc54)o3)c2)CC1        MKL-2   True

* * *

experiment: Quantitative High-Throughput drug screen in 47 multiple myeloma cell lines against the NCATS MIPE library collection: ARD_JJKsccE7 cell viability assay (AID 1918929;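 for viability: 100% = DMSO-only wells and 0% = media-only wells without cells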); conditions: ARD myeloma cell line viability, CellTiter-Glo, 48 h; series mostly up to 45.8 µM
Results filed as inconclusive are left out. Calls of active or inactive are those of the source. Calls come from the whole dose curve; as a rule, active = well fitted cell-killing curve with a large enough effect; inconclusive = small, poorly fitted or top-dose-only effect, or effect the other way; inactive = no such curve, though single readings can be large or run the other way. Residues, ends and D or L forms follow the SMILES beside them. *: point of attachment. Cbz = O=C(OCc1ccccc1)*
Classes used: T for active, F for inactive

> print(dat)
                                   compound  group
1  COc1cc(OC)c(C=CS(=O)(=O)Cc2ccc(OC)c(NCC(=O)O)c2)c(OC)c1      T
2  C=C(C)[C@@H]1CC[C@]2(C(=O)O)CC[C@]3(C)[C@H](CC[C@@H]4[C@@]5(C)CC[C@H](O)C(C)(C)[C@@H]5CC[C@]43C)[C@@H]12      F
3  CC1=C(C(=O)Nc2cc3cn[nH]c3cc2F)C(c2ccc(Cl)cc2F)N=C(c2ccnc(Cl)c2)N1 (stereo not drawn)      T
4  Oc1ccc([C@@H]2Oc3ccc(O)cc3[C@@H]3CCC[C@@H]32)cc1      F
5  CC(C)C[C@@H](C=O)NC(=O)[C@H](CC(C)C)NC(=O)[C@H](CC(C)C)NC(=O)OCc1ccccc1 (Cbz-Leu-Leu-Leu-aldehyde)      T
6  O=c1ccn([C@@H]2O[C@H](CO)[C@H](O)[C@@H]2F)c(=O)[nH]1      F
7  O=C(C=Cc1ccc(CN(CCO)CCc2c[nH]c3ccccc23)cc1)NO      T
8  O=C1c2c(O)cccc2[C@@H]([C@@H]2O[C@H](CO)[C@@H](O)[C@H](O)[C@H]2O)c2cc(CO)cc(O)c21      F

* * *

Assay: qHTS of pediatric cancer cell lines to identify multiple opportunities for drug repurposing: Primary screen for SK-N-MC cells (AID 1347093); note: potency is the fitted concentration of half-maximal effect
Conditions: SK-N-MC viability, CellTiter-Glo luminescence, 48 h; series mostly up to 46 µM
Experimental: Drug repurposing or repositioning has been offered as a strategy for drug development in oncology programs. […] [1] Shen, M et al. Quantitative high-throughput phenotypic screening of pediatric cancer cell lines identifies multiple opportunities for drug repurposing. […] Cells were assayed in growth media at a density of 500-1,000 cells/well. […] After a 15 min incubation at room temperature, samples were analyzed for luminescence intensity using a ViewLux High-throughput CCD imager equipped with clear filters.
Results filed as inconclusive are left out. Active and inactive are the calls of the source. Calls follow the shape of the dose curve; as a rule, active = well fitted cell-killing curve with a large enough effect; inconclusive = small, poorly fitted or top-dose-only effect; inactive = no such curve, though single readings can be large or run the other way.
Result type: Potency

> print(dat)
                                 cpd.smiles  result.type             result
1  Oc1cc(-c2nc(-c3ccccc3)[nH]c2-c2ccncc2)ccc1Cl      Potency    662 nM (active)
2  CCOc1cc2ncc(C#N)c(Nc3ccc(OCc4ccccn4)c(Cl)c3)c2cc1NC(=O)C=CCN(C)C      Potency    105 nM (active)
3  N#Cc1cc(NC(=O)Nc2nnc(-c3ccncc3)s2)ccc1-c1cn[nH]c1      Potency           inactive
4  CCN(CC)Cc1ccc2cc(COC(=O)Nc3ccc(C(=O)NO)cc3)ccc2c1      Potency    833 nM (active)
5  COc1cccc2c1C(=O)c1c(O)c3c(c(O)c1C2=O)C[C@@](O)(C(=O)CO)C[C@H]3O[C@H]1C[C@H](N)[C@H](O)[C@H](C)O1      Potency    105 nM (active)
6  N=c1ccn2c(n1)O[C@H]1[C@@H](O)[C@@H](CO)O[C@H]12      Potency  11800 nM (active)
7  CCNC(=O)c1cc2c(-c3cc(OCCN4CCCC4)c(Cl)cc3Cl)nc(N)nc2s1      Potency   2640 nM (active)
8  C[C@]12C=CC(=O)N[C@@H]1CC[C@H]1[C@H]3CC[C@@H](C(=O)Nc4cc(C(F)(F)F)ccc4C(F)(F)F)[C@@]3(C)CC[C@@H]12      Potency           inactive

* * *

experiment: qHTS of pediatric cancer cell lines to identify multiple opportunities for drug repurposing: Confirmatory screen for BT-37 cells (AID 1347117); conditions: BT-37 pediatric cancer cells, viability;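 note: viability measured after 48 h of compound exposure; nearly all actives have a fitted effect of over 55% in size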
Records with an inconclusive call do not appear. Calls of active or inactive are those of the source. The call rests on the fitted dose curve; in most records, active means well fitted cell-killing curve with a large enough effect; inconclusive means small, poorly fitted or top-dose-only effect; inactive means no such curve, though single readings can be large or run the other way.
Outcome codes: 1 for active, -1 for inactive

> print(dat)
                                    compound  group
 1  CC(N[C@H]1CCCC[C@H]1NC(=O)c1ccc(Cl)cc1)c1cccc2ccccc12 (stereo not given in full)      1
 2        O=C(C=CC=Cc1ccc2c(c1)OCO2)N1CCCCC1     -1
 3  COc1cc(OC)c(C=CS(=O)(=O)Cc2ccc(OC)c(NCC(=O)O)c2)c(OC)c1      1
 4                O=S(=O)(O)CCSSCCS(=O)(=O)O     -1
 5             O=C1NCCc2[nH]c(-c3ccncc3)cc21      1
 6  CN[C@@H]1C[C@H]2O[C@@](C)([C@H]1OC)n1c3ccccc3c3c4c(c5c6ccccc6n2c5c31)C(=O)N[C@H]4O      1
 7  CS(=O)(=O)N1CCc2c(-c3cnc(N)nc3)nc(N3CCOCC3)nc21      1
 8  COc1cccc2c1C(=O)c1c(O)c3c(c(O)c1C2=O)C[C@@](O)(C(=O)CO)C[C@@H]3O[C@H]1C[C@H](N)[C@@H](O)[C@H](C)O1      1
 9            O=C(Nc1cc2cc[nH]c2cn1)c1ccccc1      1
10                     Cn1cnc(=N)c2[nH]cnc21     -1

* * *

assay: Quantitative High-Throughput drug screen in 47 multiple myeloma cell lines against the NCATS MIPE library collection: MM1S_ATCC cell viability assay (AID 1918980); conditions: MM1S myeloma viability, CellTiter-Glo ATP luminescence, 48 h; series mostly up to 45.8 µM; note: nearly all actives have a fitted effect of over 45% in size
Results filed as inconclusive are left out. The source made the active and inactive calls. Calls follow the shape of the dose curve; as a rule, active = well fitted cell-killing curve with a large enough effect; inconclusive = small, poorly fitted or top-dose-only effect, or effect the other way; inactive = no such curve, though single readings can be large or run the other way.
Labels: 1 (active), -1 (inactive)

> print(dat)
                                   compound  group
1  COc1cccc2c1C(=O)c1c(O)c3c(c(O)c1C2=O)C[C@@](O)(C(=O)CO)C[C@@H]3O[C@H]1C[C@H](N)[C@@H](O)[C@H](C)O1      1
2  CC(C)C[C@H](NC(=O)CNC(=O)c1cc(Cl)ccc1Cl)B1OC(=O)CC(CC(=O)O)(C(=O)O)O1 (some centres undefined)      1
3  CC(=O)OC[C@@H]1O[C@@H](n2ccc(=O)[nH]c2=O)[C@H](OC(C)=O)[C@H]1OC(C)=O     -1
4  COc1ccc2c(c1OC)C(=O)OC2[C@H]1c2c(cc3c(c2OC)OCO3)CCN1C (some centres undefined)      1
5               O=C(O)C=Cc1ccc(Cn2ccnc2)cc1     -1
6  CCCNS(=O)(=O)Nc1ncnc(OCCOc2ncc(Br)cn2)c1-c1ccc(Br)cc1     -1
7  Nc1cccc2c1C(=O)N(C1CCC(=O)NC1=O)C2=O (centres undefined)      1
8  Nc1nc(=O)n([C@H]2C[C@H](O)[C@@H](CO)O2)cc1F      1
9  CN[C@H]1[C@@H](O)[C@@H]2O[C@@H]3O[C@H](C)CC(=O)[C@]3(O)O[C@@H]2[C@@H](NC)[C@H]1O      1
